Tested on: ATP;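 note: ATP exposure 15 min at 22 °C before imaging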
Assay: switch fluorescence ratio, 500 uM ATP over buffer (Cy3 cluster intensity, sum of 5 cycles each) (fold (ratio)); higher = stronger signal-on switching upon ATP binding; sequences stand for … in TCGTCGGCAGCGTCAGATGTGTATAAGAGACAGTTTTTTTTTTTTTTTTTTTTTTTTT…TC
Conditions: aptamer strand: ATP DNA aptamer (quencher-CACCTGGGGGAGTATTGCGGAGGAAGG + anchor), 100 nM annealed; ATP concentration: 500 uM

Sequence code: AACGTTATGC
switch fluorescence ratio: 1.13

Sequence code: TCGTTTGGTG
switch fluorescence ratio: 0.986

Sequence code: CGTTTCACTA
switch fluorescence ratio: 0.974

Sequence code: GTTCGGCAGA
switch fluorescence ratio: 1

Sequence code: GCGATTGGGT
switch fluorescence ratio: 1.01

Sequence code: ATGGGGGGGA
switch fluorescence ratio: 1.02

Sequence code: GATTGACCCT
switch fluorescence ratio: 1.05

Sequence code: TAGTGTGGGG
switch fluorescence ratio: 1.04

Sequence code: TCGTAGATGT
switch fluorescence ratio: 1

Sequence code: ATGCACTGGA
switch fluorescence ratio: 0.997

Sequence code: CTGTTTGCAG
switch fluorescence ratio: 0.987

Sequence code: TGTGTATGGT
switch fluorescence ratio: 1.01

Sequence code: TTTGGAAAAA
switch fluorescence ratio: 0.996

Sequence code: TTAATTGAGT
switch fluorescence ratio: 1.01

Sequence code: GTGTCTGGGA
switch fluorescence ratio: 0.985

Sequence code: GGGTACGAGT
switch fluorescence ratio: 0.931

Sequence code: AAGTTTGCGT
switch fluorescence ratio: 0.993

Sequence code: AGTGTTTGGC
switch fluorescence ratio: 1.01

Sequence code: GTGGCGTAGG
switch fluorescence ratio: 0.981

Sequence code: GAGGATTTAG
switch fluorescence ratio: 0.964

Sequence code: CGGTGGGGGT
switch fluorescence ratio: 0.988

Sequence code: TGAGTTTTTG
switch fluorescence ratio: 0.998

Sequence code: CGGTAGGCGA
switch fluorescence ratio: 0.985

Sequence code: CTGGGCAGAG
switch fluorescence ratio: 1.02

Sequence code: AGGGCGACG
switch fluorescence ratio: 1.05

Sequence code: TCTGGGCTTG
switch fluorescence ratio: 0.999

Sequence code: TAAGGGGGT
switch fluorescence ratio: 1

Sequence code: GTTTTACGGA
switch fluorescence ratio: 1

Sequence code: ATATCATGTT
switch fluorescence ratio: 0.995

Sequence code: AGGGTGGCTT
switch fluorescence ratio: 1.02

Sequence code: ATTATCTGGT
switch fluorescence ratio: 1.02

Sequence code: TAGGGCGGGT
switch fluorescence ratio: 0.972

Sequence code: GATGGCAAGG
switch fluorescence ratio: 1.04

Sequence code: GCTAAAACAG
switch fluorescence ratio: 0.985

Sequence code: CCCGCTGCTT
switch fluorescence ratio: 1.33

Sequence code: TTTATTACTT
switch fluorescence ratio: 1

Sequence code: GGGAGCCTAC
switch fluorescence ratio: 1.04

Sequence code: ATTTTAGGGT
switch fluorescence ratio: 0.989

Sequence code: CATTCATGGA
switch fluorescence ratio: 1.03

Sequence code: CGGTTTATTG
switch fluorescence ratio: 1

Sequence code: GTTGCAGCGC
switch fluorescence ratio: 0.982

Sequence code: CCGTTGTGCC
switch fluorescence ratio: 1.02

Sequence code: ATGAAGTGAA
switch fluorescence ratio: 1
